src = patent US9745339B2

tested on: Palivizumab; test: Microtiter plate chromatography of resins: binding and elution of Palivizumab; conditions: fraction of injected protein bound; 0.5 mg/ml IgG in PBS pH 7.3
Field: Palivizumab Bound. Provide a value for each of the compounds that follow.
// return numeric value only (unit: %, not printed)

Palivizumab Bound in this record for NCCCOc1ccc(C(=O)Nc2nnc(-c3ccco3)s2)cc1 : 100

Palivizumab Bound in this record for NCCCn1cnc2cc(C(=O)Nc3nc(-c4ccccn4)cs3)ccc21 : 100

Palivizumab Bound in this record for NCCCn1cnc2cc(C(=O)Nc3nc4ccccc4s3)ccc21 : 100

Palivizumab Bound in this record for N[C@@H](CCC(=O)NCCOCCOCCn1cnc2cc(C(=O)Nc3nnc(-c4ccco4)s3)ccc21)C(=O)NCCOCCOCCn1cnc2cc(C(=O)Nc3nnc(-c4ccco4)s3)ccc21 : 100

Palivizumab Bound in this record for Cc1nnc(NC(=O)c2ccc3c(c2)ncn3CCCN)s1 : 89

Palivizumab Bound in this record for Cc1csc(NC(=O)c2ccc3c(c2)ncn3CCCN)n1 : 100

Palivizumab Bound in this record for NCCCn1cnc2cc(C(=O)Nc3nccs3)ccc21 : 87

Palivizumab Bound in this record for NCCCn1cnc2cc(C(=O)Nc3nnc(-c4ccc5c(c4)OCO5)s3)ccc21 : 100

Palivizumab Bound in this record for Cc1cc(NC(=O)c2ccc3c(c2)ncn3CCCN)nn1-c1ccccc1 : 61

Palivizumab Bound in this record for NCCCn1cnc2cc(C(=O)Nc3nc4ccccc4o3)ccc21 : 91

Palivizumab Bound in this record for COc1nc2cc(C(=O)Nc3nnc(-c4ccco4)s3)ccc2n1CCCN : 100

Palivizumab Bound in this record for NCCCn1c(=O)[nH]c2cc(C(=O)Nc3nnc(-c4ccco4)s3)ccc21 : 100

Palivizumab Bound in this record for NCCCn1cnc2cc(C(=O)Nc3nc(-c4ccccc4)ns3)ccc21 : 100

###

target: Bevacizumab (Homo sapiens); construct: 0.5 mg/ml IgG in PBS pH 7.3; ligand immobilized on SEPHAR; Bevacizumab Yield; other: mass eluted (glycine pH 2.5) / mass injected; kd (dissociation constant, Langmuir isotherm); other: Bevacizumab 0.05-5 mg/ml in PBS pH 7.3, 25° C., at least 3 h; qm (maximum capacity); other: mg Bevacizumab per ml of resin; Langmuir isotherm; t0; fused on or other part: Humanized anti-VEGF-A VH domain joined N-terminally to the IGHG1 constant region (engineered, no UniProt entry); assay: Langmuir isotherms by batch adsorption; format: binding; settings: mg Bevacizumab per ml of resin; Langmuir isotherm
Field: qm (maximum capacity). Provide a value for each of the compounds that follow.
// return numeric value only (unit: mg/mL, not printed)

qm (maximum capacity) in this record for NCCCNc1ccc(C(=O)Nc2nc(-c3ccccn3)cs2)cn1 [Ligand L40] : 39

qm (maximum capacity) in this record for Cn1nc(C(=O)Nc2ccc3c(c2)ncn3CCCN)c2ccccc21 [Ligand L01] : 40

qm (maximum capacity) in this record for CCc1nc2cc(C(=O)Nc3nnc(-c4ccco4)s3)ccc2n1CCCN [Ligand L44] : 53

qm (maximum capacity) in this record for Cn1nc(NC(=O)c2ccc3c(c2)ncn3CCCN)c2ccccc21 [Ligand L02] : 41

qm (maximum capacity) in this record for NCCCn1cnc2cc(NC(=O)c3cn4ccsc4n3)ccc21 [Ligand L30] : 40

qm (maximum capacity) in this record for Cc1nsc(NC(=O)c2ccc3c(c2)ncn3CCCN)n1 [Ligand L36] : 35

qm (maximum capacity) in this record for CCc1nnc(NC(=O)c2ccc3c(c2)ncn3CCCN)s1 [Ligand L07] : 38

qm (maximum capacity) in this record for NCCCNc1ccc(C(=O)Nc2nnc(-c3ccco3)s2)cn1 [Ligand L19] : 42

qm (maximum capacity) in this record for NCCCn1cnc2cc(C(=O)Nc3nc(-c4ccncc4)cs3)ccc21 [Ligand L47] : 43

qm (maximum capacity) in this record for Cc1nc2cc(C(=O)Nc3nnc(-c4ccco4)s3)ccc2n1CCOCCOCCNC(=O)CC[C@H](N)C(=O)NCCOCCOCCn1c(C)nc2cc(C(=O)Nc3nnc(-c4ccco4)s3)ccc21 [Ligand L54] : 35

qm (maximum capacity) in this record for NCCCn1cnc2cc(C(=O)Nc3nc(-c4cccnc4)cs3)ccc21 [Ligand L46] : 48

qm (maximum capacity) in this record for Cc1nc2cc(C(=O)Nc3nc(-c4ccncc4)cs3)ccc2n1CCCN [Ligand L51] : 34

###

Field: Palivizumab Bound. Provide a value for each of the molecules that follow.
system: Palivizumab; assay: Microtiter plate chromatography of resins: binding and elution of Palivizumab; details: fraction of injected protein bound; 0.5 mg/ml IgG in PBS pH 7.3

Palivizumab Bound in this record for Cc1ccc(NC(=O)c2ccc3c(c2)ncn3CCCN)nn1 : 78%

Palivizumab Bound in this record for Cc1nc2cc(C(=O)Nc3nnc(-c4ccco4)s3)ccc2n1CCOCCOCCNC(=O)CC[C@H](N)C(=O)NCCOCCOCCn1c(C)nc2cc(C(=O)Nc3nnc(-c4ccco4)s3)ccc21 : 100%

Palivizumab Bound in this record for NCCCn1cnc2cc(C(=O)Nc3nncs3)ccc21 : 97%

###

test system: poly-IgG from human serum (h-poly-IgG); test: Microtiter plate chromatography of resins: binding and elution of human poly-IgG; settings: fraction of injected protein bound; 0.5 mg/ml IgG in PBS pH 7.3
Field: h-poly-IgG Bound. Provide a value for each of the compounds that follow.
// return numeric value only (unit: %, not printed)

h-poly-IgG Bound in this record for Cc1nc2cc(C(=O)Nc3nc(-c4ccccn4)cs3)ccc2n1CCCN : 100

h-poly-IgG Bound in this record for COc1nc2cc(C(=O)Nc3nnc(-c4ccco4)s3)ccc2n1CCCN : 100

h-poly-IgG Bound in this record for Cc1nc2cc(C(=O)Nc3nnc(-c4ccco4)s3)ccc2n1CCCN : 100

h-poly-IgG Bound in this record for NCCCn1cnc2cc(C(=O)Nc3nc4ccccc4s3)ccc21 : 100

h-poly-IgG Bound in this record for NCCCn1cnc2cc(C(=O)Nc3nnc(-c4ccc5c(c4)OCO5)s3)ccc21 : 100

h-poly-IgG Bound in this record for NCCCn1cnc2cc(C(=O)Nc3nccs3)ccc21 : 88

h-poly-IgG Bound in this record for Cn1nc(C(=O)Nc2ccc3c(c2)ncn3CCCN)c2ccccc21 : 100

h-poly-IgG Bound in this record for Cc1nsc(NC(=O)c2ccc3c(c2)ncn3CCCN)n1 : 81

h-poly-IgG Bound in this record for Cc1nc2cc(C(=O)Nc3nnc(-c4ccco4)s3)ccc2n1CCOCCOCCN : 100

h-poly-IgG Bound in this record for NCCCOc1ccc(C(=O)Nc2nc(-c3ccccn3)cs2)cc1 : 99

h-poly-IgG Bound in this record for NCCCNc1ccc(C(=O)Nc2nnc(-c3ccco3)s2)cn1 : 98

h-poly-IgG Bound in this record for NCCCn1c(=O)c(=O)[nH]c2cc(C(=O)Nc3nnc(-c4ccco4)s3)ccc21 : 63

###

system: host cell proteins (HCP); experiment: Microtiter plate chromatography of resins: binding of host cell proteins; parameters: species or system CHO cell culture; conditions: L55-73: estimated values based on the knowledge obtained from L01-L54
OBSERVABLE: HCP Bound

HCP Bound in this record for NCCCn1cnc2cc(C(=O)Nc3ccc(-c4ccco4)nn3)ccc21 : <40%

HCP Bound in this record for Cc1nc2cc(C(=O)Nc3nnc(-c4cnco4)s3)ccc2n1CCCN : <20%

HCP Bound in this record for CCc1nc2cc(C(=O)Nc3nnc(-c4ccoc4)s3)ccc2n1CCCN : <30%

HCP Bound in this record for Cc1nc2cc(C(=O)Nc3nc(-c4ccco4)ns3)ccc2n1CCCN : <40%

HCP Bound in this record for Cc1nc2cc(C(=O)Nc3ccc(-c4ccco4)nn3)ccc2n1CCCN : <20%

HCP Bound in this record for NCCCn1cnc2cc(C(=O)Nc3nc(-c4ccco4)ns3)ccc21 : <40%

HCP Bound in this record for Cc1nc2cc(C(=O)Nc3nnc(-c4ccoc4)s3)ccc2n1CCCN : <40%

HCP Bound in this record for CCc1nc2cc(C(=O)Nc3ncc(-c4ccco4)s3)ccc2n1CCCN : <30%

HCP Bound in this record for NCCCn1cnc2cc(C(=O)Nc3ncc(-c4ccco4)s3)ccc21 : <40%

HCP Bound in this record for NCCCNc1nc(-c2ccc(C(=O)Nc3nnc(-c4ccco4)s3)cc2)cs1 : <40%

HCP Bound in this record for Cc1nc2cc(C(=O)Nc3nnc(-c4ccno4)s3)ccc2n1CCCN : <20%

HCP Bound in this record for CCc1nc2cc(C(=O)Nc3nc(-c4ccco4)cs3)ccc2n1CCCN : <30%

###

Field: h-poly-IgG Bound. Provide a value for each of the compounds that follow.
system: poly-IgG from human serum (h-poly-IgG); experiment: Microtiter plate chromatography of resins: binding and elution of human poly-IgG; conditions: L55-73: estimated values based on the knowledge obtained from L01-L54

h-poly-IgG Bound in this record for CCc1nc2cc(C(=O)Nc3nc(-c4ccco4)ns3)ccc2n1CCCN [Ligand L65] : >80%

h-poly-IgG Bound in this record for Cc1nc2cc(C(=O)Nc3nnc(-c4ccno4)s3)ccc2n1CCCN [Ligand L71] : >80%

h-poly-IgG Bound in this record for Cc1nc2cc(C(=O)Nc3nnc(-c4ccoc4)s3)ccc2n1CCCN [Ligand L61] : >80%

h-poly-IgG Bound in this record for Cc1nc2cc(C(=O)Nc3nnc(-c4cnco4)s3)ccc2n1CCCN [Ligand L72] : >80%

h-poly-IgG Bound in this record for NCCCNc1nc(-c2ccc(C(=O)Nc3nnc(-c4ccco4)s3)cc2)cs1 [Ligand L70] : >80%

h-poly-IgG Bound in this record for CCc1nc2cc(C(=O)Nc3nnc(-c4ccoc4)s3)ccc2n1CCCN [Ligand L66] : >80%

h-poly-IgG Bound in this record for Cc1nc2cc(C(=O)Nc3ccc(-c4ccco4)nn3)ccc2n1CCCN [Ligand L64] : >80%

h-poly-IgG Bound in this record for Cc1nc2cc(C(=O)Nc3nnc(-c4ncco4)s3)ccc2n1CCCN [Ligand L73] : >80%

h-poly-IgG Bound in this record for NCCCn1cnc2cc(C(=O)Nc3nc(-c4ccco4)cs3)ccc21 [Ligand L57] : >80%

h-poly-IgG Bound in this record for Cc1nc2cc(C(=O)Nc3nc(-c4ccco4)cs3)ccc2n1CCCN [Ligand L62] : >80%

h-poly-IgG Bound in this record for Cc1nc2cc(C(=O)Nc3ncc(-c4ccco4)s3)ccc2n1CCCN [Ligand L63] : >80%
